As shown below, each of these binders has a reported Kd value.
- MEASURED TARGET: T1, full length human tau protein 2N4R (hT40) (human, UniProt P10636 1-758)
- T1 construct: recombinant; also called T441
- T1 sequence (P10636 other isoform, or with tags, fused parts or gaps limits assumed): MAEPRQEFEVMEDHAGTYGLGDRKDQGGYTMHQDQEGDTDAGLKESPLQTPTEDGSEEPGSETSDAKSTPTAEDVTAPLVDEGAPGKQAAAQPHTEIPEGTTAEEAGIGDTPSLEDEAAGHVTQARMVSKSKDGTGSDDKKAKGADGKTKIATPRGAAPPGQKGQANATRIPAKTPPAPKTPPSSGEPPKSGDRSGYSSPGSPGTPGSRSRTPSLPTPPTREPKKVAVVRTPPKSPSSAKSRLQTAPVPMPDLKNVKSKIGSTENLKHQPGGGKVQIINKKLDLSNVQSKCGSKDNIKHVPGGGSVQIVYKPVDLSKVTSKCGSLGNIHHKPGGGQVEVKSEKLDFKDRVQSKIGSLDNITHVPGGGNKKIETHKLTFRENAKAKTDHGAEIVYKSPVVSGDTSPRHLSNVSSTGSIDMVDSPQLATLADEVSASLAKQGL
- PROCEDURE TEXT: SPR, scAb captured, tau analyte
API: value field is a number in nM; no unit string.

Consider the worked cases shown below.
[
  {
    "BINDER": "3aH6 scAb (scFv, not shown: small tags and cut ends, scAb) scFv: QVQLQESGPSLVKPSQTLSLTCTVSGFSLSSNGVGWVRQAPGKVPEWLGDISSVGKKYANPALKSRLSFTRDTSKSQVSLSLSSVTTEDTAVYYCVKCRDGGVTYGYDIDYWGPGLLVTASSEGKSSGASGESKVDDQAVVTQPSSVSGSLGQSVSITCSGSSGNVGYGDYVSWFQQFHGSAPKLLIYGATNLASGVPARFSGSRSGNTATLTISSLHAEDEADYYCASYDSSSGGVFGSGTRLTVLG",
    "ENDPOINT VALUE": 3.6
  },
  {
    "BINDER": "3aA6 scAb (scFv, not shown: small tags and cut ends, scAb) scFv: QVRLQESGSSLVKPSQTLSLVCTVSGFPLTSNAVGWVRQAPGKAPEWLGLIDIDGDTAYNPALESRLSITRDTSKSQVSLSLSSVAIEDTAVYYCARHYDKWGYADSIDYWGPGLLVTVSSEGKSSGASGESKVDDQALLTQPSSVFGSLGQRVSITCSGSSSNVGYGDYVGWYQQVPGSAPKLLIYDATTRASGVPDRFSGSRSGNTATLTISSLQAEDEADYYCASYQNERSGVFGSGTRLTVLG",
    "ENDPOINT VALUE": 989
  }
]

Ask: Recorded Kd of 3aD3 scAb (scFv, not shown: small tags and cut ends, scAb) scFv: QVQLQESGPSLVKPSQTLSLTCTVSGFSLTSNGVGWVRRAPGKVPEWVGDISSGGKVYGHPALKSRLSITRDTSKSQVSLSVSSVTSEDTAVYYCVRCRDGGVSYGYDSDYWGPGLLVTVSSEGKSSGASGESKVDDQAVVTQPSSVSKSLGQSVSITCSGSSSNVGYGDYVGWFQQVPGSAPKLLIYGVTERASGVPDRFSGSRSGNTATLTISSIQAEDEADYYCASYDDSSGGIFGSGTRLTVLG , please.
Reply: 19.1

Data credit: patent US20250355001A1
